Provenance of the data: ChEMBL document CHEMBL1961873

# Target: Serine/threonine-protein kinase SIK2 (Homo sapiens);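 further: mean inhibition of SNF1LK2 (QIK) kinase activity, from the GSK PKIS screening panel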
# Conditions used: at 1 µM
molecules and their reported inhibition

{"Structure smiles string": "Nc1nonc1-c1nc2cnccc2n1C1CCCCC1", "inhibition": "9.23%"}
{"Structure smiles string": "NS(=O)(=O)c1ccc(-c2ccc3c(NC(=O)C4CC4)n[nH]c3c2)cc1", "inhibition": "8.87%"}
{"Structure smiles string": "COc1cccc(-n2ncc3c(N/N=C/c4ccncc4)ncnc32)c1", "inhibition": "54%"}
{"Structure smiles string": "NC(=O)c1sc(-n2cnc3cc(C(F)(F)F)ccc32)cc1OCc1ccccc1Br", "inhibition": "3.79%"}
{"Structure smiles string": "COc1cc2c(cc1Nc1nc(Nc3ccsc3C(N)=O)c3cc[nH]c3n1)N(C(=O)CN(C)C)CCC2", "inhibition": "5.93%"}
{"Structure smiles string": "COc1cccc(COc2cc(-n3cnc4ccccc43)sc2C(N)=O)c1", "inhibition": "-4.75%"}

---

Each entry below carries its recorded inhibition.
# Target: Tyrosine-protein kinase Yes (Homo sapiens);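 further: mean inhibition of YES, from the GSK PKIS dataset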
# Conditions used: at 0.1 µM

{"Structure smiles string": "NC(=O)c1sc(-n2cnc3cc(C(F)(F)F)ccc32)cc1OCc1ccccc1Br", "inhibition, %": 2.56}
{"Structure smiles string": "COc1cccc(COc2cc(-n3cnc4ccccc43)sc2C(N)=O)c1", "inhibition, %": 0.89}
{"Structure smiles string": "NS(=O)(=O)c1ccc(-c2ccc3c(NC(=O)C4CC4)n[nH]c3c2)cc1", "inhibition, %": 0.69}
{"Structure smiles string": "Fc1ccc(-c2ncn(C3CCNCC3)c2-c2ccnc(Oc3ccccc3)n2)cc1", "inhibition, %": 1.72}
{"Structure smiles string": "CCn1c(-c2nonc2N)nc2c(C#CC(C)(C)O)ncc(OCC3CCNCC3)c21", "inhibition, %": 2.71}

---

The entries below are paired with their reported inhibition.
# Target: Serine/threonine-protein kinase PAK 1 (Homo sapiens) (UniProt Q13153);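 further: values are mean PAK1 inhibition from the GSK PKIS kinase inhibitor set screen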
# Sequence (Q13153 whole entry): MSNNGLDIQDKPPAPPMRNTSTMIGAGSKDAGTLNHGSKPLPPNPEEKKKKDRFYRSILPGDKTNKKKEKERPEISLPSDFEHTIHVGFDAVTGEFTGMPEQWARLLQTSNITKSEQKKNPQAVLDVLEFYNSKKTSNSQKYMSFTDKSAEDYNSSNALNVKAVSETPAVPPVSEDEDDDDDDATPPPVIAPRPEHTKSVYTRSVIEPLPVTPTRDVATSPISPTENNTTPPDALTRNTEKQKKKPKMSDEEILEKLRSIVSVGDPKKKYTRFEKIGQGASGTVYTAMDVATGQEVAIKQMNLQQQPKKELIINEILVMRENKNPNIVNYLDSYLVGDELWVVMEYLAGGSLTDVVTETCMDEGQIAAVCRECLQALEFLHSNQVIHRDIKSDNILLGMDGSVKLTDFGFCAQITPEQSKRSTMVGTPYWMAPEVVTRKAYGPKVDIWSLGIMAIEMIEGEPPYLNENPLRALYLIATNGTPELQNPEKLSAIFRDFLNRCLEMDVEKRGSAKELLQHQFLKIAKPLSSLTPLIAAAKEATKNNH
# Conditions used: at 0.1 µM

{"Structure smiles string": "Cc1cc(-c2ccco2)cc(C)c1/C=C/c1cncc(-c2nn[nH]n2)c1", "Unit annotation": "%", "inhibition": 1.26}
{"Structure smiles string": "Fc1ccc(-c2ncn(C3CCNCC3)c2-c2ccnc(Oc3ccccc3)n2)cc1", "Unit annotation": "%", "inhibition": 3.79}
{"Structure smiles string": "Nc1nonc1-c1nc2cnccc2n1C1CCCCC1", "Unit annotation": "%", "inhibition": -0.52}
{"Structure smiles string": "COc1cc2c(cc1Nc1nc(Nc3ccsc3C(N)=O)c3cc[nH]c3n1)N(C(=O)CN(C)C)CCC2", "Unit annotation": "%", "inhibition": -0.61}

---

# Target: Fibroblast growth factor receptor 4 (Homo sapiens);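 further: values are mean percent inhibition of FGFR4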
# Conditions used: at 0.1 µM
Below, each entry is listed alongside its reported inhibition.

{"Structure smiles string": "COc1cccc(COc2cc(-n3cnc4ccccc43)sc2C(N)=O)c1", "Unit annotation": "%", "inhibition": -1.48}
{"Structure smiles string": "CCn1c(-c2nonc2N)nc2c(C#CCN)ncc(OCCCN)c21", "Unit annotation": "%", "inhibition": -2.34}
{"Structure smiles string": "CCn1c(-c2nonc2N)nc2c(C#CC(C)(C)O)ncc(OCC3CCNCC3)c21", "Unit annotation": "%", "inhibition": -6.83}

---

# Target: Tyrosine-protein kinase Fyn (Homo sapiens) (UniProt P06241)
# Sequence (P06241 2-537 limits assumed): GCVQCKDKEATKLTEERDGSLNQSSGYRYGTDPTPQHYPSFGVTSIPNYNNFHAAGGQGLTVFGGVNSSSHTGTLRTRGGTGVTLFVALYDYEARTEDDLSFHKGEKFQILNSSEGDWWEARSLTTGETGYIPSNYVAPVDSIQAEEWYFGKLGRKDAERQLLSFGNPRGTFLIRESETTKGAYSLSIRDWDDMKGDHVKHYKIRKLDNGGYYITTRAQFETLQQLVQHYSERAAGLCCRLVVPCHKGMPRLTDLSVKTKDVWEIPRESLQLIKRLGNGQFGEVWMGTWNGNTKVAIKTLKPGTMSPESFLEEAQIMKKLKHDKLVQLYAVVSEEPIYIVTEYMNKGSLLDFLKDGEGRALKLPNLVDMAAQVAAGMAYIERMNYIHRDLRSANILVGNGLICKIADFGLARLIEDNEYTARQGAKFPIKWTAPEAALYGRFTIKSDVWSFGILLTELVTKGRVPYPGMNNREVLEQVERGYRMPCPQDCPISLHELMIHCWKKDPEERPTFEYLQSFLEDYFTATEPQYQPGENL
# Conditions used: at 1 µM
# Description: GSK_PKIS: FYN mean inhibition at 1 uM [Nanosyn]
Entries and their inhibition values follow.
Property measured: inhibition (%)

{"Structure smiles string": "COc1cccc(COc2cc(-n3cnc4ccccc43)sc2C(N)=O)c1", "Unit annotation": "%", "Obs value": 2.15}
{"Structure smiles string": "Nc1nonc1-c1nc2cnccc2n1C1CCCCC1", "Unit annotation": "%", "Obs value": 4.39}
{"Structure smiles string": "COc1cc(C=NNc2ncnc3c2cnn3Cc2ccccc2)ccc1O", "Unit annotation": "%", "Obs value": 4.87}
{"Structure smiles string": "Cc1cc(-c2ccco2)cc(C)c1/C=C/c1cncc(-c2nn[nH]n2)c1", "Unit annotation": "%", "Obs value": 1.98}

---

# Target: Mitogen-activated protein kinase 12 (Homo sapiens) (UniProt P53778);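 further: values are averaged p38gamma kinase inhibition readings, compounds tested at 1 µM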
# Sequence (whole entry): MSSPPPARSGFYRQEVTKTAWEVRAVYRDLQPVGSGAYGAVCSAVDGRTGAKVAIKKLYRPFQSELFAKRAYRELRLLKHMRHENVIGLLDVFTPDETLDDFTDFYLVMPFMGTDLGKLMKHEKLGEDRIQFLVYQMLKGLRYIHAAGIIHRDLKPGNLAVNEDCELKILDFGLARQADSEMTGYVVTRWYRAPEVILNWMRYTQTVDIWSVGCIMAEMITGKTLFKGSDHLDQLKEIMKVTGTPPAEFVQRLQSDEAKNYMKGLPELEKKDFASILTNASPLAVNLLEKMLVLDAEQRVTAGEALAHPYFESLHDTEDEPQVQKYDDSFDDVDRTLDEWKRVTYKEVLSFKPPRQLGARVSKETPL
# Conditions used: at 1 µM
Attribute: inhibition

{"Structure smiles string": "Nc1nonc1-c1nc2cnccc2n1C1CCCCC1", "inhibition [%]": 0.39}
{"Structure smiles string": "COc1cccc(COc2cc(-n3cnc4ccccc43)sc2C(N)=O)c1", "inhibition [%]": -0.04}
{"Structure smiles string": "CCn1c(-c2nonc2N)nc2c(C#CCN)ncc(OCCCN)c21", "inhibition [%]": -2.79}

---

# Target: Macrophage colony-stimulating factor 1 receptor (Homo sapiens) (UniProt P07333);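 further: value reported is the mean inhibition of FMS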
# Sequence (P07333 whole entry): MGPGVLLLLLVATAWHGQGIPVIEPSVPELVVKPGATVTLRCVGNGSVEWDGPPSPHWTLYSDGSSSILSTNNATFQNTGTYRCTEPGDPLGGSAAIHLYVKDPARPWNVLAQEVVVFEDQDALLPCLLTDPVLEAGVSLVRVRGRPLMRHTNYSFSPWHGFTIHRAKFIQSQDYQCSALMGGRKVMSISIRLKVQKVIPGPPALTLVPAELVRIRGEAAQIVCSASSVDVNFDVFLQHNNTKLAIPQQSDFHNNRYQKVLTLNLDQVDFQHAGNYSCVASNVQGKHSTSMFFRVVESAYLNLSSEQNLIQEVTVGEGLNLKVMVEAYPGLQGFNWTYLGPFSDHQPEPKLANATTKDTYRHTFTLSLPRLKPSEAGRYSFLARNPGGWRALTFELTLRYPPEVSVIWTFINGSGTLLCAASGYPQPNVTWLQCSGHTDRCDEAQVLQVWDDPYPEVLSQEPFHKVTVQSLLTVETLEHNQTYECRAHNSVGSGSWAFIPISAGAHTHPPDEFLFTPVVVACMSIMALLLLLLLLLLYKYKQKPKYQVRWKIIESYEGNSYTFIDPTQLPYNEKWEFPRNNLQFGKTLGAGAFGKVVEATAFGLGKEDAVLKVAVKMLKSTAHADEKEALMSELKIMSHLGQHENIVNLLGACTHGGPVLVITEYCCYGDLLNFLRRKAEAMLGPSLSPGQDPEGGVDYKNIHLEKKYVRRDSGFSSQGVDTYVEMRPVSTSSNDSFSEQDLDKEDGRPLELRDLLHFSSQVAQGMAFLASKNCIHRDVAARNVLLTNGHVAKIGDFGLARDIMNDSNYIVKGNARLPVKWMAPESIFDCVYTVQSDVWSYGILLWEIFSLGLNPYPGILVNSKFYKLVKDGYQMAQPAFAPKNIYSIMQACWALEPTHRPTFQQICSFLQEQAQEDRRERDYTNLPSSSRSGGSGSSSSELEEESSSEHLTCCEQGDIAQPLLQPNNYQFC
# Conditions used: at 0.1 µM

{"Structure smiles string": "CCn1c(-c2nonc2N)nc2c(C#CC(C)(C)O)nc(O[C@@H](CN)c3ccccc3)cc21", "inhibition": "0.67%"}
{"Structure smiles string": "COc1cccc(-n2ncc3c(N/N=C/c4ccncc4)ncnc32)c1", "inhibition": "6.17%"}
{"Structure smiles string": "COc1cccc(COc2cc(-n3cnc4ccccc43)sc2C(N)=O)c1", "inhibition": "-8.31%"}

---

# Target: Phosphorylase b kinase gamma catalytic chain, skeletal muscle/heart isoform (Homo sapiens);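 further: values are averaged percent inhibition of PHKG1 kinase activity, from the GSK PKIS inhibitor-set screen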
# Conditions used: at 0.1 µM

{"Structure smiles string": "Fc1ccc(-c2ncn(C3CCNCC3)c2-c2ccnc(Oc3ccccc3)n2)cc1", "inhibition (%)": 3.99}
{"Structure smiles string": "CCn1c(-c2nonc2N)nc2c(C#CC(C)(C)O)ncc(OC[C@@H]3CCCN3)c21", "inhibition (%)": 1.02}
{"Structure smiles string": "COc1cccc(-n2ncc3c(N/N=C/c4ccncc4)ncnc32)c1", "inhibition (%)": 5.39}
{"Structure smiles string": "CCn1c(-c2nonc2N)nc2c(C#CC(C)(C)O)ncc(OCC3CCNCC3)c21", "inhibition (%)": 2.88}
{"Structure smiles string": "CCn1c(-c2nonc2N)nc2c(C#CCN)ncc(OCCCN)c21", "inhibition (%)": 3.15}
{"Structure smiles string": "Cc1cc(-c2ccco2)cc(C)c1/C=C/c1cncc(-c2nn[nH]n2)c1", "inhibition (%)": 3.4}
{"Structure smiles string": "CCn1c(-c2nonc2N)nc2c(C#CC(C)(C)O)nc(O[C@@H](CN)c3ccccc3)cc21", "inhibition (%)": 1.61}
{"Structure smiles string": "Nc1nonc1-c1nc2cnccc2n1C1CCCCC1", "inhibition (%)": -3.58}

---

inhibition values for the molecules below.
# Target: Ribosomal protein S6 kinase alpha-3 (Homo sapiens) (UniProt P51812);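 further: reported value is a mean inhibition figure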
# Sequence (P51812 whole entry): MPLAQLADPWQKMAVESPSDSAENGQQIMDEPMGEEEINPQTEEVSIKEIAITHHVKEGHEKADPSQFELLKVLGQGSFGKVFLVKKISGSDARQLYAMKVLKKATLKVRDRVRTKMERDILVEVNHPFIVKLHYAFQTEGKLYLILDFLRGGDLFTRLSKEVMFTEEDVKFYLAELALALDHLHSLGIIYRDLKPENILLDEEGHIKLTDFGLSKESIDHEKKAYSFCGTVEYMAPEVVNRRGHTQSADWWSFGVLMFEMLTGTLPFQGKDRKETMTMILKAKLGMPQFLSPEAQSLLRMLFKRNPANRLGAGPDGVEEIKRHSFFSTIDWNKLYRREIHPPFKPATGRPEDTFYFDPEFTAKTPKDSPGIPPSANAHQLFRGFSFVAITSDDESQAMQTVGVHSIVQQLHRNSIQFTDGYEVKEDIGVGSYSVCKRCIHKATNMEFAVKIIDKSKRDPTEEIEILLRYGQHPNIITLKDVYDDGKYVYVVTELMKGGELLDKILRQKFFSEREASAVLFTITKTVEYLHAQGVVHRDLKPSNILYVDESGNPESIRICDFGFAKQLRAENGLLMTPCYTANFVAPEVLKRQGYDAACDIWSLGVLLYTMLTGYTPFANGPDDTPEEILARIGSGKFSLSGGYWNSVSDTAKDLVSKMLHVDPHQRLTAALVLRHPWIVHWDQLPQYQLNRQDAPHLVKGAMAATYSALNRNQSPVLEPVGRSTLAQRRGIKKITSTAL
# Conditions used: at 0.1 µM

{"Structure smiles string": "NS(=O)(=O)c1ccc(-c2ccc3c(NC(=O)C4CC4)n[nH]c3c2)cc1", "Unit annotation": "%", "inhibition": 0.4}
{"Structure smiles string": "CCn1c(-c2nonc2N)nc2c(C#CCN)ncc(OCCCN)c21", "Unit annotation": "%", "inhibition": 24.4}
{"Structure smiles string": "NC(=O)c1sc(-n2cnc3cc(C(F)(F)F)ccc32)cc1OCc1ccccc1Br", "Unit annotation": "%", "inhibition": 3.26}
{"Structure smiles string": "NS(=O)(=O)c1ccc(N/C=C2\\C(=O)Nc3ccc4ncsc4c32)cc1", "Unit annotation": "%", "inhibition": 6.13}

---

# Target: Serine/threonine-protein kinase pim-2 (Homo sapiens) (UniProt Q9P1W9)
# Sequence (Q9P1W9 whole entry, looked up): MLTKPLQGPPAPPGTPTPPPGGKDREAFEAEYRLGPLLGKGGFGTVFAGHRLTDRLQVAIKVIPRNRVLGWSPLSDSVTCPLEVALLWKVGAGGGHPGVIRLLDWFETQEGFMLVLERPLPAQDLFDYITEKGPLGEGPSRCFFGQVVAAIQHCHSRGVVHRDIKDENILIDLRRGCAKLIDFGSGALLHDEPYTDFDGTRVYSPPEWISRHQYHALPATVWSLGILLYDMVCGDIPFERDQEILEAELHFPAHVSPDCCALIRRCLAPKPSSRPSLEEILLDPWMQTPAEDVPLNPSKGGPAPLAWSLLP
# Conditions used: at 0.1 µM

{"Structure smiles string": "Fc1ccc(-c2ncn(C3CCNCC3)c2-c2ccnc(Oc3ccccc3)n2)cc1", "Target": "Serine/threonine-protein kinase pim-2 (Homo sapiens) (UniProt Q9P1W9)", "inhibition / %": -3.22}
{"Structure smiles string": "COc1cc(C=NNc2ncnc3c2cnn3Cc2ccccc2)ccc1O", "Target": "Serine/threonine-protein kinase pim-2 (Homo sapiens) (UniProt Q9P1W9)", "inhibition / %": 0.65}
{"Structure smiles string": "CCn1c(-c2nonc2N)nc2c(C#CC(C)(C)O)ncc(OCC3CCNCC3)c21", "Target": "Serine/threonine-protein kinase pim-2 (Homo sapiens) (UniProt Q9P1W9)", "inhibition / %": -3.05}

---

# Target: Ephrin type-A receptor 4 (Homo sapiens) (UniProt P54764);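 further: mean inhibition of EPHA4 from the GSK PKIS screening set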
# Sequence (P54764 whole entry): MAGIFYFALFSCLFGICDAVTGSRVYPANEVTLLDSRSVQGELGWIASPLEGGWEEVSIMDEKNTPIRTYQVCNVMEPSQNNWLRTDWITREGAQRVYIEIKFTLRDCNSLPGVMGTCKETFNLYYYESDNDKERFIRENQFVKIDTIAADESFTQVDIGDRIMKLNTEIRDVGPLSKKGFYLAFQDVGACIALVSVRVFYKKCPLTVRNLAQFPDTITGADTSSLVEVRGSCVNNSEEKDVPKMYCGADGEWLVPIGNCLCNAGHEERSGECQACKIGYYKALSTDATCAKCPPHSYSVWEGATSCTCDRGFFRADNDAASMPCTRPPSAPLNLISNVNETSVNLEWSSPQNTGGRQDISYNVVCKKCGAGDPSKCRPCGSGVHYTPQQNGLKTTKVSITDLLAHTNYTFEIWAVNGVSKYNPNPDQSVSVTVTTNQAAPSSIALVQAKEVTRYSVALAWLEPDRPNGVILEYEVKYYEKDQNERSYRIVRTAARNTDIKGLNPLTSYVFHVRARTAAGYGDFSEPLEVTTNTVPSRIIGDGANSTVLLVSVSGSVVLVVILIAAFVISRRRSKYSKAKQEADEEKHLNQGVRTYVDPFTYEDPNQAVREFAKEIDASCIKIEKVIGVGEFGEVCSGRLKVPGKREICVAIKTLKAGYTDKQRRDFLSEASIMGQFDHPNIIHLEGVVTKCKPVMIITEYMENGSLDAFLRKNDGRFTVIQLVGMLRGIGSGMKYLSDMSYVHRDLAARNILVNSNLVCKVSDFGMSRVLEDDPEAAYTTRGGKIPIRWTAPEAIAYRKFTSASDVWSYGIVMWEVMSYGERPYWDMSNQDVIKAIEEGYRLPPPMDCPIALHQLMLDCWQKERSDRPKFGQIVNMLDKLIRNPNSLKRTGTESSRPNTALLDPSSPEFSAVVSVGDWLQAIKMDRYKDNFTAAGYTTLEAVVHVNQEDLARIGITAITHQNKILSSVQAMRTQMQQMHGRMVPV
# Conditions used: at 0.1 µM
Readings of inhibition for the listed molecules

{"Structure smiles string": "CCn1c(-c2nonc2N)nc2c(C#CCN)ncc(OCCCN)c21", "Target": "Ephrin type-A receptor 4 (Homo sapiens) (UniProt P54764)", "Unit annotation": "%", "inhibition": -3.41}
{"Structure smiles string": "NS(=O)(=O)c1ccc(-c2ccc3c(NC(=O)C4CC4)n[nH]c3c2)cc1", "Target": "Ephrin type-A receptor 4 (Homo sapiens) (UniProt P54764)", "Unit annotation": "%", "inhibition": 4.83}
{"Structure smiles string": "COc1cccc(-n2ncc3c(N/N=C/c4ccncc4)ncnc32)c1", "Target": "Ephrin type-A receptor 4 (Homo sapiens) (UniProt P54764)", "Unit annotation": "%", "inhibition": 11.1}
{"Structure smiles string": "Cc1cc(-c2ccco2)cc(C)c1/C=C/c1cncc(-c2nn[nH]n2)c1", "Target": "Ephrin type-A receptor 4 (Homo sapiens) (UniProt P54764)", "Unit annotation": "%", "inhibition": 1.64}
{"Structure smiles string": "CCn1c(-c2nonc2N)nc2c(C#CC(C)(C)O)ncc(OC[C@@H]3CCCN3)c21", "Target": "Ephrin type-A receptor 4 (Homo sapiens) (UniProt P54764)", "Unit annotation": "%", "inhibition": -0.1}
{"Structure smiles string": "NS(=O)(=O)c1ccc(N/C=C2\\C(=O)Nc3ccc4ncsc4c32)cc1", "Target": "Ephrin type-A receptor 4 (Homo sapiens) (UniProt P54764)", "Unit annotation": "%", "inhibition": 8.05}
